// reported melting point for each item listed

compound: O=C(c1ccc(F)cc1)N1CCCC(n2nnc(-c3ccc(F)cc3)n2)C1 (centres unmarked)
melting point: 137 to 139 °C
//
compound: O=C(c1ccc(F)cc1F)N1CCC[C@H](n2nnc(-c3ccc(F)cc3)n2)C1
melting point: 65 to 68 °C
//
compound: O=C(c1ccc(F)c(F)c1)N1CCC[C@H](n2nnc(-c3ccc(F)cc3)n2)C1
melting point: 123 to 128 °C
//
compound: O=C(c1ccc(F)nc1)N1CCC[C@H](n2nnc(-c3ccc(F)cc3)n2)C1
melting point: 109 to 110 °C

Requested field: melting point. Item: O=C(c1ccc(F)cc1)N1CCC[C@H](n2nnc(-c3ccc(F)cc3)n2)C1
109 to 110 °C
